System: CD-1 mice
Assay: Luciferase expression in organs after intravenous injection of pCILuc complexes
Type: in vivo
Settings: WR 2; lung; 40 μg pCILuc i.v., 5 h
MEASURED_PROPERTY: Luciferase RLU/20 μl lysate lung

CC(C)CCC[C@@H](C)[C@H]1CC[C@H]2[C@@H]3CC=C4C[C@@H](OC(=O)NCCNC(=O)[C@@H](N)CCCN)CC[C@]4(C)[C@H]3CC[C@]12C | 37 RLU/20 μl lysate
CCCCCCCCCCCCCCCCCCN(CCCCCCCCCCCCCCCCCC)C(=O)C(CSSCC(NC(=O)C(CCCNCCCN)NCCCN)C(=O)N(CCCCCCCCCCCCCCCCCC)CCCCCCCCCCCCCCCCCC)NC(=O)C(CCCNCCCN)NCCCN.O=C(O)C(F)(F)F.O=C(O)C(F)(F)F.O=C(O)C(F)(F)F.O=C(O)C(F)(F)F.O=C(O)C(F)(F)F.O=C(O)C(F)(F)F.O=C(O)C(F)(F)F.O=C(O)C(F)(F)F (stereo not drawn) | 40 RLU/20 μl lysate

Now consider a different compound.
Query block: # get_value(readout='Luciferase RLU/20 μl lysate lung', item= `CCCCCCCCCCCCCCCCCC(CCCCCCCCCCCCCCCCC)NC(=O)CNC(=O)CNC(=O)[C@H](CCCNCCCN)NCCCN.O=C(O)C(F)(F)F.O=C(O)C(F)(F)F.O=C(O)C(F)(F)F.O=C(O)C(F)(F)F` )
Result block: 142 RLU/20 μl lysate

###

System: CD-1 mice
Assay: Luciferase expression in organs after intravenous injection of pCILuc complexes
Assay type: in vivo
Conditions: WR 2; liver; 40 μg pCILuc i.v., 5 h
Binarize Luciferase RLU/20 μl lysate liver at 50 RLU/20 μl lysate; below is 1, at or above is -1.

A selection of reference data follows.
CCCCCCCCCCCCCCCCCC(CCCCCCCCCCCCCCCCC)OC(=O)NCCNC(=O)[C@@H](N)CCCN.O=C(O)C(F)(F)F.O=C(O)C(F)(F)F | -1
CCCCCCCCCCCCCCCCCCN(CCCCCCCCCCCCCCCCCC)C(=O)CNC(=O)[C@@H](N)CCCN.O=C(O)C(F)(F)F.O=C(O)C(F)(F)F | -1
CCCCCCCCCCCCCCCCCC(CCCCCCCCCCCCCCCCC)NC(=O)CNC(=O)CNC(=O)[C@H](CCCNCCCN)NCCCN.O=C(O)C(F)(F)F.O=C(O)C(F)(F)F.O=C(O)C(F)(F)F.O=C(O)C(F)(F)F | -1
CCCCCCCCCCCCCCCCCCN(CCCCCCCCCCCCCCCCCC)C(=O)C(CSSCC(NC(=O)C(CCCNCCCN)NCCCN)C(=O)N(CCCCCCCCCCCCCCCCCC)CCCCCCCCCCCCCCCCCC)NC(=O)C(CCCNCCCN)NCCCN.O=C(O)C(F)(F)F.O=C(O)C(F)(F)F.O=C(O)C(F)(F)F.O=C(O)C(F)(F)F.O=C(O)C(F)(F)F.O=C(O)C(F)(F)F.O=C(O)C(F)(F)F.O=C(O)C(F)(F)F (stereo not drawn) | 1

Query block: Luciferase RLU/20 μl lysate liver under 50 RLU/20 μl lysate? Item: `CCCCCCCCCCCCCCCCCC(CCCCCCCCCCCCCCCCC)NC(=O)CNC(=O)CNC(=O)[C@@H](N)CCCN.O=C(O)C(F)(F)F.O=C(O)C(F)(F)F`
Result block: 1

Query block: Determine if `CC(C)CCC[C@@H](C)[C@H]1CC[C@H]2[C@@H]3CC=C4C[C@@H](OC(=O)NCCNC(=O)[C@@H](N)CCCN)CC[C@]4(C)[C@H]3CC[C@]12C` shows Luciferase RLU/20 μl lysate liver strictly lower than 50 RLU/20 μl lysate.
Result block: 1

###

Recorded measurements of Luciferase RLU/20 μl lysate lung, one per entry
Tested on: CD-1 mice
Experiment: Luciferase expression in organs after intravenous injection of pCILuc complexes
Type: in vivo
Details: WR 2; lung; 40 μg pCILuc i.v., 5 h
API: value field is a number in RLU/20 μl lysate; no unit string.

CCCCCCCCCCCCCCCCCCN(CCCCCCCCCCCCCCCCCC)C(=O)CC[C@H](NC(=O)[C@H](CCCNCCCN)NCCCN)C(=O)O.O=C(O)C(F)(F)F.O=C(O)C(F)(F)F.O=C(O)C(F)(F)F.O=C(O)C(F)(F)F | 36
CCCCCCCCCCCCCCCCCCN(CCCCCCCCCCCCCCCCCC)C(=O)CNC(=O)[C@H](CCCN(CCCN)CCCN)N(CCCN)CCCN.O=C(O)C(F)(F)F.O=C(O)C(F)(F)F.O=C(O)C(F)(F)F.O=C(O)C(F)(F)F.O=C(O)C(F)(F)F.O=C(O)C(F)(F)F | 45

Query block: Reported Luciferase RLU/20 μl lysate lung, compound `CCCCCCCCCCCCCCCCCCN(CCCCCCCCCCCCCCCCCC)C(=O)[C@H](CSSC[C@H](NC(=O)[C@@H](N)CCCN)C(=O)N(CCCCCCCCCCCCCCCCCC)CCCCCCCCCCCCCCCCCC)NC(=O)[C@@H](N)CCCN.O=C(O)C(F)(F)F.O=C(O)C(F)(F)F.O=C(O)C(F)(F)F.O=C(O)C(F)(F)F` : ____
Result block: 40

Query block: // query Luciferase RLU/20 μl lysate lung value for entry `CCCCCCCCCCCCCCCCCC(CCCCCCCCCCCCCCCCC)NC(=O)CNC(=O)CNC(=O)[C@@H](N)CCCN.O=C(O)C(F)(F)F.O=C(O)C(F)(F)F`
Result block: 52

Query block: Using the record for `CCCCCCCCCCCCCCCCCC(CCCCCCCCCCCCCCCCC)OC(=O)NCCNC(=O)[C@@H](N)CCCN.O=C(O)C(F)(F)F.O=C(O)C(F)(F)F` , report its Luciferase RLU/20 μl lysate lung.
Result block: 88

Query block: Quick one: Luciferase RLU/20 μl lysate lung for `CCCCCCCCCCCCCCCCCCN(CCCCCCCCCCCCCCCCCC)C(=O)CNC(=O)[C@@H](N)CCCN.O=C(O)C(F)(F)F.O=C(O)C(F)(F)F` ?
Result block: 57

Query block: What value of Luciferase RLU/20 μl lysate lung has been reported for the following compound? `CCCCCCCCCCCCCCCCCC(CCCCCCCCCCCCCCCCC)OC(=O)NCCNC(=O)[C@H](CCCNCCCN)NCCCN.O=C(O)C(F)(F)F.O=C(O)C(F)(F)F.O=C(O)C(F)(F)F.O=C(O)C(F)(F)F`
Result block: 41

###

Tested on: CD-1 mice
Assay: Luciferase expression in organs after intravenous injection of pCILuc complexes
Assay type: in vivo
Conditions: WR (lipid to DNA) 2; spleen; 40 μg pCILuc i.v., 5 h
MEASURED_PROPERTY: Luciferase RLU/20 μl lysate spleen

Some entries whose results are on file:
CCCCCCCCCCCCCCCCCC(CCCCCCCCCCCCCCCCC)NC(=O)CNC(=O)CNC(=O)[C@@H](N)CCCN.O=C(O)C(F)(F)F.O=C(O)C(F)(F)F [GC-039] | 288 RLU/20 μl lysate
CCCCCCCCCCCCCCCCCC(CCCCCCCCCCCCCCCCC)OC(=O)NCCNC(=O)[C@@H](N)CCCN.O=C(O)C(F)(F)F.O=C(O)C(F)(F)F [GC-030] | 3,692 RLU/20 μl lysate
CCCCCCCCCCCCCCCCCCN(CCCCCCCCCCCCCCCCCC)C(=O)CNC(=O)[C@H](CCCN(CCCN)CCCN)N(CCCN)CCCN.O=C(O)C(F)(F)F.O=C(O)C(F)(F)F.O=C(O)C(F)(F)F.O=C(O)C(F)(F)F.O=C(O)C(F)(F)F.O=C(O)C(F)(F)F [GC-016] | 40 RLU/20 μl lysate
CCCCCCCCCCCCCCCCCC(CCCCCCCCCCCCCCCCC)OC(=O)NCCNC(=O)[C@H](CCCNCCCN)NCCCN.O=C(O)C(F)(F)F.O=C(O)C(F)(F)F.O=C(O)C(F)(F)F.O=C(O)C(F)(F)F [GC-029] | 31 RLU/20 μl lysate

Next:
Query block: Provide value of Luciferase RLU/20 μl lysate spleen for this record tested with CD-1 mice: CCCCCCCCCCCCCCCCCCN(CCCCCCCCCCCCCCCCCC)C(=O)CC[C@H](NC(=O)[C@H](CCCNCCCN)NCCCN)C(=O)O.O=C(O)C(F)(F)F.O=C(O)C(F)(F)F.O=C(O)C(F)(F)F.O=C(O)C(F)(F)F [GC-033]
Result block: 27 RLU/20 μl lysate

###

Tested on: CD-1 mice
Test: Luciferase expression in organs after intravenous injection of pCILuc complexes
Assay type: in vivo
Conditions: WR 2; liver; 40 μg pCILuc i.v., 5 h
Measured Luciferase RLU/20 μl lysate liver of individual entries
Reply numerically in RLU/20 μl lysate, unit not repeated.

// below: answered compounds
CCCCCCCCCCCCCCCCCC(CCCCCCCCCCCCCCCCC)OC(=O)NCCNC(=O)[C@H](CCCNCCCN)NCCCN.O=C(O)C(F)(F)F.O=C(O)C(F)(F)F.O=C(O)C(F)(F)F.O=C(O)C(F)(F)F [GC-029] | 31
CCCCCCCCCCCCCCCCCCN(CCCCCCCCCCCCCCCCCC)C(=O)[C@H](CSSC[C@H](NC(=O)[C@@H](N)CCCN)C(=O)N(CCCCCCCCCCCCCCCCCC)CCCCCCCCCCCCCCCCCC)NC(=O)[C@@H](N)CCCN.O=C(O)C(F)(F)F.O=C(O)C(F)(F)F.O=C(O)C(F)(F)F.O=C(O)C(F)(F)F [GC-025] | 38
CCCCCCCCCCCCCCCCCCN(CCCCCCCCCCCCCCCCCC)C(=O)CNC(=O)[C@H](CCCN(CCCN)CCCN)N(CCCN)CCCN.O=C(O)C(F)(F)F.O=C(O)C(F)(F)F.O=C(O)C(F)(F)F.O=C(O)C(F)(F)F.O=C(O)C(F)(F)F.O=C(O)C(F)(F)F [GC-016] | 38

Query block: Requested read-out Luciferase RLU/20 μl lysate liver, target or system CD-1 mice, entry CCCCCCCCCCCCCCCCCCN(CCCCCCCCCCCCCCCCCC)C(=O)CC[C@H](NC(=O)[C@H](CCCNCCCN)NCCCN)C(=O)O.O=C(O)C(F)(F)F.O=C(O)C(F)(F)F.O=C(O)C(F)(F)F.O=C(O)C(F)(F)F [GC-033]
Result block: 29
